Data provenance: patent US9925153B2

The entries below come with measured pIC50 values attached.
# Tested on: NF-κB
# PROCEDURE DETAILS: Inhibition of TNFα-induced activation of NF-κB, 293T/NF-κB-luc luciferase reporter cells
# Assay type: cell-based, human
# APPLIED CONDITIONS: Homo sapiens, HEK-293T, 7 h, 293T/NF-κB-luc cells, TNFα 20 ng/ml, 7 hours, triplicate; read-out: IC50 for inhibition of the TNFα-induced activation of NFκB
pIC50: −log10 of the molar value.
REPORTED PROPERTY: pIC50

1. COc1ccc(/C=C/c2cccc(OC)c2)cc1 [6r, (E)-3,4′-Dimethoxystilbene]	6.22
2. COc1ccc(/C=C/c2ccc(C)cc2)cc1 [6d, (E)-4′-Methoxy-4-methylstilbene]	6.05
3. COc1ccc(/C=C/c2ccc(O)c(O)c2)cc1 [6x, (E)-3,4-Dihydroxy-4′-methoxystilbene]	6.22
4. COc1ccc(/C=C/c2cccc(Cl)c2)cc1 [6h, (E)-3-Chloro-4′-methoxystilbene]	6.00
5. Oc1ccc(/C=C/c2cc(O)cc(O)c2)cc1 [resveratrol, 3,4′,5-trihydroxystilbene, reference compound]	4.70
6. COc1ccc(/C=C/c2cccc(C)c2)cc1 [6i, (E)-4′-Methoxy-3-methylstilbene]	6.10
7. COc1ccc(/C=C/c2ccccc2Cl)cc1 [6j, (E)-2-Chloro-4′-methoxystilbene]	5.82
8. CN(C)c1ccc(/C=C/c2ccccc2)cc1 [4cc, (E)-4-N,N-Dimethylaminostilbene]	6.82
9. COc1ccc(/C=C/c2ccccc2F)cc1 [6p, (E)-2-Fluoro-4′-methoxystilbene]	6.82

* * *

# Test system: AP-1
# PROCEDURE DETAILS: Inhibition of TPA-induced activation of AP-1, 293T/AP-1-luc luciferase reporter cells
# Format: cell-based, human
# APPLIED CONDITIONS: Homo sapiens, 24 h, read-out: IC50 for inhibition of the TPA-induced activation of AP-1
REPORTED PROPERTY: IC50

1. COc1ccc(/C=C/c2cc(OC)cc(OC)c2)cc1 [6f, (E)-3,4′,5-Trimethoxystilbene]	3.8 µM
